Reported viability, T/C is given for each of the following compounds.
# System: KRAS-mutant PDC tumor spheroid with HUVEC/MSC, viability
# EXPERIMENTAL DETAILS: Anticancer human tumor 327498-153-R-J2-PDC patient-derived uterine carcinosarcoma cell line growth inhibition [KRAS2]
# CONDITIONS USED: second compound 10 µM; first compound 0.1 µM; hits give low values
QUANTITY NAME: viability, T/C

• CC(C)NCC(C(=O)N1CCN(c2ncnc3c2C(C)CC3O)CC1)c1ccc(Cl)cc1 (configuration not stated) + COc1cc2nc(C)nc(NC(C)c3cc(N)cc(C(F)(F)F)c3)c2cc1OC1CCOC1 = 27.3%
• CN(C)C/C=C/C(=O)Nc1cc2c(Nc3ccc(F)c(Cl)c3)ncnc2cc1O[C@H]1CCOC1 + CC1OCC2(CCN(c3cnc(Sc4ccnc(N)c4Cl)c(N)n3)CC2)C1N = 33.5%
• CCN1CCN(Cc2ccc(Nc3ncc(F)c(-c4cc(F)c5nc(C)n(C(C)C)c5c4)n3)nc2)CC1 + CC1OCC2(CCN(c3cnc(Sc4ccnc(N)c4Cl)c(N)n3)CC2)C1N = 16.9%
• CCNC(=O)CC1N=C(c2ccc(Cl)cc2)c2cc(OC)ccc2-n2c(C)nnc21 (configuration not stated) + COc1cc2nc(C)nc(NC(C)c3cc(N)cc(C(F)(F)F)c3)c2cc1OC1CCOC1 = 52.7%
• O=C(c1cc(Cc2n[nH]c(=O)c3ccccc23)ccc1F)N1CCN(C(=O)C2CC2)CC1 + COc1cc2nc(C)nc(NC(C)c3cc(N)cc(C(F)(F)F)c3)c2cc1OC1CCOC1 = 61%
• COC(=O)c1ccc2c(C(=Nc3ccc(N(C)C(=O)CN4CCN(C)CC4)cc3)c3ccccc3)c(O)[nH]c2c1 + CC1OCC2(CCN(c3cnc(Sc4ccnc(N)c4Cl)c(N)n3)CC2)C1N = 27.9%
• CCN1CCN(Cc2ccc(Nc3ncc(F)c(-c4cc(F)c5nc(C)n(C(C)C)c5c4)n3)nc2)CC1 + C=CC(=O)N1CCN(c2nc(=O)n(-c3c(C)ccnc3C(C)C)c3nc(-c4c(O)cccc4F)c(F)cc23)C(C)C1 = 36.2%
• COc1cc2nccc(Oc3ccc(NC(=O)C4(C(=O)Nc5ccc(F)cc5)CC4)cc3)c2cc1OC + C=CC(=O)N1CCN(c2nc(=O)n(-c3c(C)ccnc3C(C)C)c3nc(-c4c(O)cccc4F)c(F)cc23)C(C)C1 = 37.5%
• Cn1nccc1Nc1nccc(-c2cc3c(s2)C(C)(C)N(CCN2CCOCC2)C3=O)n1 + COc1cc2nc(C)nc(NC(C)c3cc(N)cc(C(F)(F)F)c3)c2cc1OC1CCOC1 = 46.4%
• COC(=O)c1ccc2c(C(=Nc3ccc(N(C)C(=O)CN4CCN(C)CC4)cc3)c3ccccc3)c(O)[nH]c2c1 + COc1cc2nc(C)nc(NC(C)c3cc(N)cc(C(F)(F)F)c3)c2cc1OC1CCOC1 = 58.9%
• COc1cc(Nc2ncc3c(n2)-c2ccc(Cl)cc2C(c2c(F)cccc2OC)=NC3)ccc1C(=O)O + COc1cc2nc(C)nc(NC(C)c3cc(N)cc(C(F)(F)F)c3)c2cc1OC1CCOC1 = 8.45%
• CC1COCCN1c1cc(-c2ccnn2C)c2ccnc(-c3ccn[nH]3)c2n1 (configuration not stated) + CC1OCC2(CCN(c3cnc(Sc4ccnc(N)c4Cl)c(N)n3)CC2)C1N = 7.85%
• COc1cc2nccc(Oc3ccc(NC(=O)C4(C(=O)Nc5ccc(F)cc5)CC4)cc3)c2cc1OC + CC1OCC2(CCN(c3cnc(Sc4ccnc(N)c4Cl)c(N)n3)CC2)C1N = 21.9%
• CC1COCCN1c1cc(-c2ccnn2C)c2ccnc(-c3ccn[nH]3)c2n1 (configuration not stated) + COc1cc2nc(C)nc(NC(C)c3cc(N)cc(C(F)(F)F)c3)c2cc1OC1CCOC1 = 1.79%
• O=C(c1cc(Cc2n[nH]c(=O)c3ccccc23)ccc1F)N1CCN(C(=O)C2CC2)CC1 + CC1OCC2(CCN(c3cnc(Sc4ccnc(N)c4Cl)c(N)n3)CC2)C1N = 31.8%
• CC(C)NCC(C(=O)N1CCN(c2ncnc3c2C(C)CC3O)CC1)c1ccc(Cl)cc1 (configuration not stated) + CC1OCC2(CCN(c3cnc(Sc4ccnc(N)c4Cl)c(N)n3)CC2)C1N = 12.2%
• CCNC(=O)CC1N=C(c2ccc(Cl)cc2)c2cc(OC)ccc2-n2c(C)nnc21 (configuration not stated) + CNCc1ccccc1-c1csc(C(C)Nc2nc(C)nc3cc(OC)c(OC)cc23)c1 = 1.7%
• CC(C)n1nc(-c2ccc3oc(N)nc3c2)c2c(N)ncnc21 + CNCc1ccccc1-c1csc(C(C)Nc2nc(C)nc3cc(OC)c(OC)cc23)c1 = 0.39%
• CC(=O)OC12COC1CC(O)C1(C)C(=O)C(O)C3=C(C)C(OC(=O)C(O)C(NC(=O)OC(C)(C)C)c4ccccc4)CC(O)(C(OC(=O)c4ccccc4)C21)C3(C)C (configuration not stated) + CNCc1ccccc1-c1csc(C(C)Nc2nc(C)nc3cc(OC)c(OC)cc23)c1 = 2.08%
• CCNC(=O)CC1N=C(c2ccc(Cl)cc2)c2cc(OC)ccc2-n2c(C)nnc21 (configuration not stated) + CC1OCC2(CCN(c3cnc(Sc4ccnc(N)c4Cl)c(N)n3)CC2)C1N = 20.7%
• CCNC(=O)CC1N=C(c2ccc(Cl)cc2)c2cc(OC)ccc2-n2c(C)nnc21 (configuration not stated) + C=CC(=O)N1CCN(c2nc(=O)n(-c3c(C)ccnc3C(C)C)c3nc(-c4c(O)cccc4F)c(F)cc23)C(C)C1 = 43.3%
• CC1COCCN1c1cc(-c2ccnn2C)c2ccnc(-c3ccn[nH]3)c2n1 (configuration not stated) + CNCc1ccccc1-c1csc(C(C)Nc2nc(C)nc3cc(OC)c(OC)cc23)c1 = 0.13%

----------
# Tested on: KRAS-mutant PDC tumor spheroid with HUVEC/MSC, viability
# EXPERIMENTAL DETAILS: Anticancer human tumor 327498-153-R-J2-PDC cell line growth inhibition [KRAS2];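 further: spheroids exposed to agents for seven days before reading; 100% = DMSO vehicle wells so lower means fewer viable cells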
# CONDITIONS USED: second compound 0.316 µM; first compound 1 µM; hits give low values
QUANTITY NAME: viability, T/C (%)

• CC(C)NCC(C(=O)N1CCN(c2ncnc3c2C(C)CC3O)CC1)c1ccc(Cl)cc1 (stereo not given) + C=CC(=O)N1CCN(c2nc(OCC3CCCN3C)nc3c2CCN(c2cccc4cccc(C)c24)C3)CC1CC#N = 13.5
• Cn1nccc1Nc1nccc(-c2cc3c(s2)C(C)(C)N(CCN2CCOCC2)C3=O)n1 + COc1cc2nc(C)nc(NC(C)c3cc(N)cc(C(F)(F)F)c3)c2cc1OC1CCOC1 = 47
• CC1COCCN1c1cc(-c2ccnn2C)c2ccnc(-c3ccn[nH]3)c2n1 (stereo not given) + C=CC(=O)N1CCN(c2nc(=O)n(-c3c(C)ccnc3C(C)C)c3nc(-c4c(O)cccc4F)c(F)cc23)C(C)C1 = 6.22
• CCNC(=O)CC1N=C(c2ccc(Cl)cc2)c2cc(OC)ccc2-n2c(C)nnc21 (stereo not given) + CC1OCC2(CCN(c3cnc(Sc4ccnc(N)c4Cl)c(N)n3)CC2)C1N = 27.9
• CC1(C)CCC(CN2CCN(c3ccc(C(=O)NS(=O)(=O)c4ccc(NCC5CCOCC5)c([N+](=O)[O-])c4)c(Oc4cnc5[nH]ccc5c4)c3)CC2)=C(c2ccc(Cl)cc2)C1 + C=CC(=O)N1CCN(c2nc(=O)n(-c3c(C)ccnc3C(C)C)c3nc(-c4c(O)cccc4F)c(F)cc23)C(C)C1 = 57.5
• CC(C)NCC(C(=O)N1CCN(c2ncnc3c2C(C)CC3O)CC1)c1ccc(Cl)cc1 (stereo not given) + COc1cc2nc(C)nc(NC(C)c3cc(N)cc(C(F)(F)F)c3)c2cc1OC1CCOC1 = 21.7
• CCN1CCN(Cc2ccc(Nc3ncc(F)c(-c4cc(F)c5nc(C)n(C(C)C)c5c4)n3)nc2)CC1 + CNCc1ccccc1-c1csc(C(C)Nc2nc(C)nc3cc(OC)c(OC)cc23)c1 = 43.9
• CC(=O)OC12COC1CC(O)C1(C)C(=O)C(O)C3=C(C)C(OC(=O)C(O)C(NC(=O)OC(C)(C)C)c4ccccc4)CC(O)(C(OC(=O)c4ccccc4)C21)C3(C)C (stereo not given) + CNCc1ccccc1-c1csc(C(C)Nc2nc(C)nc3cc(OC)c(OC)cc23)c1 = 9.11
• COC(=O)c1ccc2c(C(=Nc3ccc(N(C)C(=O)CN4CCN(C)CC4)cc3)c3ccccc3)c(O)[nH]c2c1 + C=CC(=O)N1CCN(c2nc(OCC3CCCN3C)nc3c2CCN(c2cccc4cccc(C)c24)C3)CC1CC#N = 14.4
• COc1cc2nccc(Oc3ccc(NC(=O)C4(C(=O)Nc5ccc(F)cc5)CC4)cc3)c2cc1OC + C=CC(=O)N1CCN(c2nc(OCC3CCCN3C)nc3c2CCN(c2cccc4cccc(C)c24)C3)CC1CC#N = 45
